Record form. Attribute: normalized growth. Fill in for each entry.
- assay_comment: chemical genetic growth profiling, strain panel (AID 1159580);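 also: tested at 20 µM; growth read once vehicle control cultures reached saturation at 30 °C; 1 = growth at the plate median or of vehicle wells; lower values mean less growth of the strain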
- condition_set: S. cerevisiae deletion strains, growth OD, locus YJL129C, strain trk1, hits give low values
In all, about 5,500 compounds went through this assay and about 2,000 (36%) were called active. Inconclusive results (about 18%) are left out. The list shows a part of the results.
Give bare numbers.

C[C@H]1[C@H]2CCC3C4CC=C5C[C@@H](N(C)C)CC[C@]5(C)C4CC[C@@]32CN1C (stereo not given in full): 0.99
Nc1ccc([As](=O)(O)O)cc1: 1
C=C(NC(=O)C(=C)NC(=O)c1csc(C2=NC3c4csc(n4)C4NC(=O)c5csc(n5)C(C(C)(O)C(C)O)NC(=O)C5CSC(=N5)C(=CC)NC(=O)C(C(C)O)NC(=O)c5csc(n5)C3(CC2)NC(=O)C(C)NC(=O)C(=C)NC(=O)C(C)NC(=O)C(C(C)CC)NC2C=Cc3c(C(C)O)cc(nc3C2O)C(=O)OC4C)n1)C(N)=O (stereo not given): 1
Nc1ccc(C(=O)NCC(=O)O)cc1: 1.02
CCN(CC)CCOc1ccc2c(c1)C(=O)c1cc(OCCN(CC)CC)ccc1-2: 0.974

List the reported normalized growth of each compound below.
1. O=[N+]([O-])c1ccc(O)c([N+](=O)[O-])c1
2. O=C(O)CF

Output:
1. 0.694
2. 1.05

For every record below, what is its normalized growth?
1. CN(C)CCOc1ccc(/C(=C(/CCCl)c2ccccc2)c2ccccc2)cc1
2. CC(C)NCC(O)c1ccc(O)c(O)c1 (stereo not given)
3. CCCC(C)C1(CC)C(=O)N=C(S)NC1=O (stereo not given)
4. CC/C(=C(\c1ccccc1)c1ccc(OCCN(C)C)cc1)c1ccccc1
5. O=[N+]([O-])c1cc(O)c(O)c([N+](=O)[O-])c1
6. Cc1c(Nc2ncccc2C(=O)O)cccc1C(F)(F)F

Output:
[0.0917, 0.979, 0.962, 0.159, 1.01, 0.955]

Quick one: give me normalized growth for each item below, same order please.
1. COc1cc(C(=O)NCc2ccc(OCCN(C)C)cc2)cc(OC)c1OC
2. CNC[C@@H](O)c1ccc(O)c(O)c1

Output:
1: 0.981; 2: 1

====

- assay_comment: chemical genetic growth profiling, strain panel (AID 1159580);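 also: tested at 20 µM; growth read once vehicle control cultures reached saturation at 30 °C; 1 = growth at the plate median or of vehicle wells; lower values mean less growth of the strain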
- condition_set: S. cerevisiae deletion strains, growth OD, locus YGL173C, strain kem1, hits give low values
Screen size: about 5,500 compounds; about 2,000 (36%) were called active. About 18% were inconclusive and are not listed. The list shows a part of the results.
Kindly state normalized growth for each of the entries shown.
One number for each entry.

Here's what some known entries look like.
CN[C@H](CC(=O)O)C(=O)O: 1.01
CCOC(=O)c1oc2c(OC)c(O)cc(O)c2c(=O)c1-c1cc(OC)c(OC)c(OC)c1: 0.965

Quick one: give me normalized growth for each item below, same order please.
1. Nc1ccc([As](=O)(O)O)cc1
2. CCC(Cc1c(I)cc(I)c(N)c1I)C(=O)O (stereo unspecified)
3. CC(=O)c1c(O)c(C)c(O)c2c1OC1=CC(=O)C(C(C)=O)C(=O)C12C (stereo unspecified)
4. O=[N+]([O-])c1ccc(O)c([N+](=O)[O-])c1

Output:
[1.01, 0.936, 0.992, 0.822]
